target: Lysosomal alpha-glucosidase (Homo sapiens); test: qHTS Assay for Activators of Human alpha-Glucosidase as a Potential Chaperone Treatment of Pompe Disease; conditions: purified enzyme, 4-MU-alpha-glucoside fluorescence, 20 min; series mostly up to 76.9 µM; also: potency is read from the fitted curve at half-maximal effect; nearly all actives have a fitted effect of over 80% in size
The campaign covered roughly 200,000 compounds. About 720 (0.36%) were called active. Inconclusive results (about 8%) are left out. The list shows a part of the results.
readout kind: Potency

INSERT INTO assay_data (compound, experimental_result) VALUES
  ('COc1ccc(F)cc1CN1CCN(c2cc(C)nc3c4c(C)cc(C)nc4nn23)CC1', '35.5 µM (active)'),
  ('COCCNC(=O)c1c(N)n(-c2ccccc2)c2nc3ccccc3nc12', '39.8 µM (active)'),
  ('O=c1oc2ccccc2c2c1SC(C(F)(F)F)C2 (stereo unspecified)', '31.6 µM (active)'),
  ('CCCNC(=O)c1c(N)n(-c2cccc(OC)c2)c2nc3ccccc3nc12', '35.5 µM (active)'),
  ('COC(=O)c1c(N)n(-c2ccc(NC(C)=O)cc2)c2nc3ccccc3nc12', '28.2 µM (active)'),
  ('COCCNC(=O)c1c(N)n(CCCn2ccnc2)c2nc3ccccc3nc12', '35.5 µM (active)');

* * *

Below, each entry is listed with its recorded Potency.
Target: Lysosomal alpha-glucosidase (Homo sapiens) (UniProt P10253)
Test: qHTS Assay for Activators of Human alpha-Glucosidase as a Potential Chaperone Treatment of Pompe Disease; also: potency is read from the fitted curve at half-maximal effect; nearly all actives have a fitted effect of over 80% in size
Settings: purified enzyme, 4-MU-alpha-glucoside fluorescence, 20 min; series mostly up to 76.9 µM
Source text: NIH Chemical Genomics Center [NCGC] NIH Molecular Libraries Probe Production centers Network [MLPCN] […] NCGC Assay Protocol Summary: This is a fluorogenic enzyme assay with 4-methylumbelliferyl-alpha-D-[…] as the substrate and human alpha-glucosidase as the enzyme preparation. […] 4-methyllumbelliferone, can be excited at 365 nm and emits at 440 nm which can be detected by a standard fluorescence plate reader. […]
In all, about 200,000 compounds went through this assay and about 720 (0.36%) were called active. Not shown: some 8% with an inconclusive outcome. This is one part of the list.
readout kind: Potency

INSERT INTO results (compound, experimental_result) VALUES
  ('O=C(O)c1cc(-c2ccccc2)nc2nc(N3CCCCC3)sc12', '28.2 µM (active)'),
  ('CCN1c2ccccc2-c2nc3ccccc3n2C1c1cccs1 (centres undefined)', '35.5 µM (active)'),
  ('N#Cc1c(C(F)(F)F)cc(-c2ccc(Cl)cc2)[nH]c1=O', '39.8 µM (active)'),
  ('Cc1cc(NCCCN2CCOCC2)n2c(nc3ccccc32)c1C#N', '31.6 µM (active)'),
  ('O=C(NCCN1CCOCC1)c1cc2c(=O)n3ccccc3nc2n1Cc1ccccc1', '35.5 µM (active)'),
  ('N#Cc1c(C(F)(F)F)cc(-c2ccc(F)cc2)[nH]c1=O', '35.5 µM (active)'),
  ('CN1c2ccccc2-c2nc3ccccc3n2C1c1cccs1 (centres undefined)', '35.5 µM (active)'),
  ('CCOC(=O)c1sc2c(c1C)C(c1cccs1)C1=C(CCCC1=O)N2 (centres undefined)', '25.1 µM (active)'),
  ('CCc1nnc(NC(=O)CSc2nc(C)c3c(c2C#N)CCCC3)s1', '35.5 µM (active)'),
  ('CCCc1cc(NCCCCO)n2c(nc3ccccc32)c1C#N', '35.5 µM (active)'),
  ('CCN1CCN(C(=O)c2cc3c(=O)n4ccccc4nc3n2Cc2ccccc2)CC1', '31.6 µM (active)'),
  ('COc1ccc(C2CC(c3ccccc3)=NN2c2ccc(S(N)(=O)=O)cc2)cc1OC (centres undefined)', '31.6 µM (active)'),
  ('Nc1c(C(=O)OCC2CCCO2)c2nc3ccccc3nc2n1C1CCCC1 (centres undefined)', '39.8 µM (active)'),
  ('COCCCn1cnc2oc3nc4ccccc4nc3c2c1=O', '35.5 µM (active)');

* * *

# Potency listing for each entry below
biological target: Lysosomal alpha-glucosidase (Homo sapiens); assay: qHTS Assay for Activators of Human alpha-Glucosidase as a Potential Chaperone Treatment of Pompe Disease; conditions: purified enzyme, 4-MU-alpha-glucoside fluorescence, 20 min; series mostly up to 76.9 µM; also: potency is read from the fitted curve at half-maximal effect; nearly all actives have a fitted effect of over 80% in size
The whole screen tested about 200,000 compounds, of which about 720 (0.36%) were called active. Not shown: some 8% with an inconclusive outcome. This is one part of the list.
readout kind: Potency

INSERT INTO measurements (structure_string, readout_kind, experimental_result) VALUES
  ('CCCCN1C=C(C(=O)OC)C(c2ccccc2Cl)C(C(=O)OC)=C1', 'Potency', '22.4 µM (active)'),
  ('O=C(c1cc2c(=O)n3ccccc3nc2s1)N1CCc2ccccc2C1', 'Potency', '44.7 µM (active)'),
  ('CCn1cc(-c2ccnc3cc(C(=O)O)nn23)c(C)n1', 'Potency', '39.8 µM (active)'),
  ('COC(=O)C1=CN(C(C)C)C=C(C(=O)OC)C1c1cccc(OC)c1', 'Potency', '28.2 µM (active)'),
  ('C=CCn1c(N)c(C(=O)OCC(C)C)c2nc3ccccc3nc21', 'Potency', '35.5 µM (active)');

* * *

molecular target: Lysosomal alpha-glucosidase (Homo sapiens); experiment: qHTS Assay for Activators of Human alpha-Glucosidase as a Potential Chaperone Treatment of Pompe Disease; conditions: purified enzyme, 4-MU-alpha-glucoside fluorescence, 20 min; series mostly up to 76.9 µM; also: potency is read from the fitted curve at half-maximal effect; nearly all actives have a fitted effect of over 80% in size
In all, about 200,000 compounds went through this assay and about 720 (0.36%) were called active. Another 8% or so got no clear call; they are omitted. The list shows a part of the results.
Catalogue of Potency readings, one per entry.
readout kind: Potency

INSERT INTO measurements (molecule, experimental_result) VALUES
  ('O=C(CN1C(=O)/C(=C\c2cccc(Cl)c2)Oc2ccccc21)N1CCN(c2ccccn2)CC1', '3.98 µM (active)'),
  ('CCCCN(CC)CCNC(=O)CCC(=O)Nc1ccc2nc(N3CCN(C)CC3)cc(C)c2c1', '28.2 µM (active)'),
  ('Cc1ccc(-c2cn3cccnc3n2)cc1NC(=O)c1ccc(Br)o1', '35.5 µM (active)'),
  ('CCOC(=O)c1cc2c(=O)n3ccccc3nc2n(CC2CCCO2)c1=NC(C)=O (stereo not drawn)', '35.5 µM (active)'),
  ('Cc1nc2cc3ccccc3cc2c(=O)[nH]1', '25.1 µM (active)'),
  ('C=CCn1c(-c2ccc(OC)cc2)nc2nc3ccccc3nc21', '35.5 µM (active)'),
  ('COc1ccc2cc(/C=N/NC(=O)CN(c3ccccc3)S(=O)(=O)c3ccccc3)c(Cl)nc2c1', '35.5 µM (active)'),
  ('CCCn1c(-c2cccs2)nc2nc3ccccc3nc21', '35.5 µM (active)'),
  ('COc1cc(C(=O)Nc2cc(-c3cn4cccnc4n3)ccc2C)cc(OC)c1OC', '35.5 µM (active)'),
  ('CCCCCOC(=O)c1c(N)n(CCOC)c2nc3ccccc3nc12', '35.5 µM (active)'),
  ('Cc1cc(-n2c(=O)c(C#N)cc3c(=O)n4ccccc4nc32)no1', '35.5 µM (active)'),
  ('O=C(c1ccco1)N1CCN(C/C=C/c2ccccc2)CC1', '17.8 µM (active)'),
  ('CCCc1cc(=O)oc2c(C)c(O)c(CN3CCCCC3)cc12', '17.8 µM (active)'),
  ('CCCn1c(=NC(C)=O)c(C(=O)OCC)cc2c(=O)n3ccccc3nc21', '35.5 µM (active)'),
  ('CCCCNC(=O)CCC(=O)Nc1ccc2nc(N3CCC(C)CC3)cc(C)c2c1', '39.8 µM (active)'),
  ('CCc1cc(=O)oc2c(C)c(O)c(CN3CCCCC3)cc12', '35.5 µM (active)'),
  ('Cc1c(-c2cccc(NC(=O)c3ccco3)c2)nc2ncccn12', '35.5 µM (active)'),
  ('COC(=O)c1ccncc1N', '35.5 µM (active)'),
  ('C=CCn1c(-c2cccs2)nc2nc3ccccc3nc21', '35.5 µM (active)'),
  ('Cc1cc(=O)n2cccc(O)c2n1', '25.1 µM (active)'),
  ('COC(=O)C1=CN(Cc2cccs2)C=C(C(=O)OC)C1c1ccc(OC)cc1OC', '35.5 µM (active)'),
  ('Cc1c(OC(=O)CNC(=O)OC(C)(C)C)ccc2c3c(c(=O)oc12)CCC3', '11.2 µM (active)'),
  ('CCOc1cc(C2C3=C(CCCC3=O)N(CCC(=O)O)C3=C2C(=O)CCC3)ccc1OS(=O)(=O)c1ccc(C)cc1', '35.5 µM (active)'),
  ('COc1cccc(C(=O)Nc2cc(-c3cn4cccnc4n3)ccc2C)c1', '35.5 µM (active)'),
  ('CCC(NC(=O)OC(C)(C)C)C(=O)Oc1ccc2c3c(c(=O)oc2c1)CCC3 (stereo not drawn)', '35.5 µM (active)'),
  ('Cc1ccc(S(=O)(=O)NC(CC(C)C)C(=O)Oc2ccc3c4c(c(=O)oc3c2)CCC4)cc1 (stereo not drawn)', '35.5 µM (active)'),
  ('CSCCC(NC(C)=O)C(=O)Oc1ccc2c3c(c(=O)oc2c1)CCCC3 (stereo not drawn)', '35.5 µM (active)'),
  ('O=C(Nc1cccc(-c2cn3cccnc3n2)c1)c1ccco1', '28.2 µM (active)'),
  ('CCN1CCCC1CNC(=O)c1ccc2c(=O)n(CCOC)c(=O)[nH]c2c1 (stereo not drawn)', '31.6 µM (active)'),
  ('Cc1cc(=O)oc2cc3c(cc12)OCCN3', '35.5 µM (active)'),
  ('CCCCNC(=O)CCC(=O)Nc1ccc2nc(N3CCCCC3)cc(C)c2c1', '25.1 µM (active)'),
  ('COC(=O)c1sc2cnccc2c1N', '35.5 µM (active)'),
  ('CCCCC(NS(=O)(=O)c1ccc(C)cc1)C(=O)Oc1ccc2c3c(c(=O)oc2c1)CCC3 (stereo not drawn)', '31.6 µM (active)');
